# runDescription: Cmax in BALB/c mouse at 30 mg/kg, po administered through 0.2 % Tween 80/0.5 % HPMC formulation
# Type: ADME, organism-based
# Set-up: dose 30 mg/kg, route oral
# conditions: in vivo
assayMetric: Cmax (ng/mL)
Only the number, expressed in ng/mL, is required.

Query: Return reported Cmax. Input molecule: `Cc1c(CC(=O)O)c2ccsc2n1S(=O)(=O)c1ccc(S(C)(=O)=O)cc1`
Reply: 7800

###

Hi there, I'd appreciate the recorded IC50 for every entry that follows.

Query: Give measured IC50 for `Cc1c(CC(=O)O)c2ccsc2n1Cc1ccc(S(C)(=O)=O)cc1Cl` (Voltage-gated inwardly rectifying potassium channel KCNH2 (Homo sapiens, UniProt Q12809)).
Reply: 45 µM

Query: Give measured IC50 for `Cc1c(CC(=O)O)c2ccsc2n1Cc1ccc(S(=O)(=O)N(C)C2CCCCC2)cc1` (Voltage-gated inwardly rectifying potassium channel KCNH2 (Homo sapiens, UniProt Q12809)).
Reply: 31 µM

Query: Give measured IC50 for `Cc1c(CC(=O)O)c2ccsc2n1S(=O)(=O)c1ccc(S(C)(=O)=O)cc1` (Voltage-gated inwardly rectifying potassium channel KCNH2 (Homo sapiens, UniProt Q12809)).
Reply: > 100 µM

Query: Give measured IC50 for `Cc1c(CC(=O)O)c2ccsc2n1Cc1ccc(S(C)(=O)=O)cc1` (Voltage-gated inwardly rectifying potassium channel KCNH2 (Homo sapiens, UniProt Q12809)).
Reply: 31 µM

###

# targetOrSystem: Prostaglandin D2 receptor 2 (Homo sapiens)
# runDescription: Displacement of [3H]PGD2 from human CRTH2 receptor expressed in HEK293 cell membranes
assayMetric: pIC50
// pIC50 is dimensionless: -log10 of concentration (M)

Query: Return reported pIC50. Input molecule: `Cc1c(CC(=O)O)c2ccsc2n1S(=O)(=O)c1ccc(C#N)cc1`
Reply: 5.52

Query: Return reported pIC50. Input molecule: `Cc1c(CC(=O)O)c2ccsc2n1Cc1ccc(S(=O)(=O)N(C)C)cc1`
Reply: 6.72

Query: Return reported pIC50. Input molecule: `Cc1c(CC(=O)O)c2ccsc2n1Cc1ccc(S(=O)(=O)N(C)C2CCCCC2)cc1`
Reply: 7.70

###

# targetOrSystem: Prostaglandin D2 receptor 2 (Homo sapiens)
# runDescription: Antagonist activity at human CRTH2 receptor expressed in CHO/Ga16 cells co-expressing Galpha16 protein assessed as calcium flux by FLIPR assay
# Format: functional, cell-based
assayMetric: IC50 (µM)
Only the number, expressed in µM, is required.

Query: Give measured IC50 for `Cc1c(CC(=O)O)c2ccsc2n1Cc1ccc(S(C)(=O)=O)cc1` (Prostaglandin D2 receptor 2 (Homo sapiens)).
Reply: 0.13

###

# targetOrSystem: Prostaglandin D2 receptor 2 (Homo sapiens)
# Sequence (Q9Y5Y4 whole entry): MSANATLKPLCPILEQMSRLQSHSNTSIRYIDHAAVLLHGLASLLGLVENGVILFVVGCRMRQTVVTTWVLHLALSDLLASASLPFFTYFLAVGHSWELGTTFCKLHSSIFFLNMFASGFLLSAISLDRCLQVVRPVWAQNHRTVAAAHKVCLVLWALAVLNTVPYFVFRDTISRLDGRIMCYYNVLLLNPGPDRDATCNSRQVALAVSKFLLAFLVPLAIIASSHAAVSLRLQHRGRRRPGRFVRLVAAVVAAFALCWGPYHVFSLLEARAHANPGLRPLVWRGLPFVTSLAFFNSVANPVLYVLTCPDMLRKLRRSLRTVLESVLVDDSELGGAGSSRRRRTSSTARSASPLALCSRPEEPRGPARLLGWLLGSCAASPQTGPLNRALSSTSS
# runDescription: Displacement of [3H]PGD2 from human CRTH2 receptor expressed in HEK293 cell membranes
assayMetric: IC50 (µM)
Only the number, expressed in µM, is required.

Query: Give measured IC50 for `Cc1c(CC(=O)O)c2ccsc2n1Cc1ccc(S(C)(=O)=O)cc1Cl` (Prostaglandin D2 receptor 2 (Homo sapiens)).
Reply: 0.01

Query: Give measured IC50 for `Cc1csc2c1c(CC(=O)O)c(C)n2S(=O)(=O)c1ccc(S(C)(=O)=O)cc1` (Prostaglandin D2 receptor 2 (Homo sapiens)).
Reply: 1.3

Query: Give measured IC50 for `Cc1csc2c1c(CC(=O)O)c(C)n2Cc1ccc(S(C)(=O)=O)cc1` (Prostaglandin D2 receptor 2 (Homo sapiens)).
Reply: 1.5

Query: Give measured IC50 for `Cc1c(CC(=O)O)c2ccsc2n1S(=O)(=O)c1ccc(S(=O)(=O)N2CCOCC2)cc1` (Prostaglandin D2 receptor 2 (Homo sapiens)).
Reply: 0.23

Query: Give measured IC50 for `Cc1c(CC(=O)O)c2ccsc2n1Cc1ccc(S(C)(=O)=O)cc1` (Prostaglandin D2 receptor 2 (Homo sapiens)).
Reply: 0.05

Query: Give measured IC50 for `Cc1c(CC(=O)O)c2ccsc2n1S(=O)(=O)c1ccc(F)cc1` (Prostaglandin D2 receptor 2 (Homo sapiens)).
Reply: 1.63

Query: Give measured IC50 for `Cc1cc2c(CC(=O)O)c(C)n(Cc3ccc(S(C)(=O)=O)cc3)c2s1` (Prostaglandin D2 receptor 2 (Homo sapiens)).
Reply: 1.8

Query: Give measured IC50 for `Cc1cc2c(CC(=O)O)c(C)n(Cc3ccc(S(C)(=O)=O)cc3Cl)c2s1` (Prostaglandin D2 receptor 2 (Homo sapiens)).
Reply: 0.33

Query: Give measured IC50 for `CS(=O)(=O)c1ccc(S(=O)(=O)n2cc(CC(=O)O)c3ccsc32)cc1` (Prostaglandin D2 receptor 2 (Homo sapiens)).
Reply: 4

Query: Give measured IC50 for `CS(=O)(=O)c1ccc(S(=O)(=O)n2cc(CC(=O)O)c3sccc32)cc1` (Prostaglandin D2 receptor 2 (Homo sapiens)).
Reply: 5
